B1: SMG5 (parent)
chain: TRKLSPGKKRCKDIKRLLVNFMYL

variants of: B1; test: protein stability index of a GFP-peptide fusion (GPS, HEK-293T) (PSI 1-6); higher = more stable; settings: c terminus: a fixed tail appended;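 also: lentivirally expressed fusions sorted by FACS into six bins by GFP to DsRed ratio, PSI derived from sequencing read proportions per bin multiplied by bin number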
Quick reference: protein stability index of the listed items.
QUANTITY: protein stability index

1. TRKLSPGKKRAKDIKRLLVNFMYL [C11A]: 3.02
2. TRKLSPGKKRCKDIKRLLVPFMYL [N20P]: 3.07
3. TRKLSPGKKRCKDIKRLLVEFMYL [N20E]: 3.09
4. TMKLSPGKKRCKDIKRLLVNFMYL [R2M]: 3
5. TRKLSPGKKRCKDIKRLLVNFMYG [L24G]: 2.92
